The values you see were collected from the supplement of paper PMC7411640.

Test system: MDA-MB-468
assayText: phospho-S6 immunofluorescence (DAPI-normalised), per-plate z-score; higher = higher phospho-S6 signal (less pathway suppression)
measurementSetup: co-treatment: lapatinib 1 uM; 24 h
Counter-ions that a name gives are not always drawn.
attributeMeasured: phospho-S6 immunofluorescence (z-score)

molecule | attributeMeasured | measuredValue
CN1CCC2=C(C1)c1ccccc1Cc1ccccc12 [Setiptiline (maleate)] (compound 10 µM) | phospho-S6 immunofluorescence (z-score) | -1.28
CCN(CC)C(=O)c1ccc(C2=CC3(CCNCC3)Oc3cccc(O)c32)cc1 (compound 10 µM) | phospho-S6 immunofluorescence (z-score) | -0.78
CN1CCC(c2c[nH]c3ccc(O)cc23)CC1 (compound 10 µM) | phospho-S6 immunofluorescence (z-score) | 0.55
CN1[C@@H]2CC[C@H]1C[C@@H](OC(=O)[C@H](CO)c1ccccc1)C2 [L-Hyoscyamine] (compound 10 µM) | phospho-S6 immunofluorescence (z-score) | 0.67
CN1C[C@H](C(=O)N[C@]2(C)O[C@@]3(O)[C@@H]4CCCN4C(=O)[C@H](Cc4ccccc4)N3C2=O)C[C@@H]2c3cccc4[nH]cc(c34)C[C@H]21 [Dihydroergotamine (mesylate)] (compound 10 µM) | phospho-S6 immunofluorescence (z-score) | 0
CCC(COC(=O)c1cc(OC)c(OC)c(OC)c1)(c1ccccc1)N(C)C (configuration not stated) [Trimebutine (maleate)] (compound 10 µM) | phospho-S6 immunofluorescence (z-score) | 1.5
Cc1cccc([C@H](C)c2c[nH]cn2)c1C [Dexmedetomidine (hydrochloride)] (compound 10 µM) | phospho-S6 immunofluorescence (z-score) | 0.38
